Listing of recorded inhibition by entry.
target.of.assay: Serine/threonine-protein kinase Nek6 (Homo sapiens);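 note: values are the mean percent inhibition of NEK6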
measurement.context: at 0.1 µM
Report the figure in % without appending any unit label.

# example entries with known answers
COc1cc(C)c(NC(=O)CN(C)C)cc1Nc1nc(Nc2cccc(F)c2C(N)=O)c2cc[nH]c2n1: -0.84
c1cnn2ncc(-c3ccnc(Nc4ccc5c(c4)OCCO5)n3)c2c1: 3.89
NCc1ccc(-c2nc(-c3ccc(Cl)c(O)c3)c(-c3ccncc3)[nH]2)cc1: -0.93
COc1ccccc1Nc1ncc(-c2ccccc2)o1: 0.52
CCn1c(-c2nonc2N)nc2c(C#CC(C)(C)O)nc(CN3CCCC3)cc21: 1.01

*Q* Can you look up the measured inhibition of COc1ccc(-c2coc3ncnc(N)c23)cc1 for me?
*A* 1.43

*Q* Can you look up the measured inhibition of Cc1nnc(-c2ccc(C)c(-c3ccc(C(=O)Nc4cccc(C#N)c4)cc3)c2)o1 for me?
*A* 1.65

*Q* Can you look up the measured inhibition of COc1cc2ncn(-c3cc(O[C@@H](C)c4ccccc4Cl)c(C(N)=O)s3)c2cc1OC for me?
*A* 1.03

*Q* Can you look up the measured inhibition of NS(=O)(=O)c1cccc(-c2ccc3c(NC(=O)C4CC4)n[nH]c3c2)c1 for me?
*A* -1.88

*Q* Can you look up the measured inhibition of CCN1CCC(CC(=O)Nc2n[nH]c3nc(-c4cccs4)c(Br)cc23)CC1 for me?
*A* -1.1

*Q* Can you look up the measured inhibition of Nc1ncnc2occ(-c3ccc(NC(=O)Nc4cccc(C(F)(F)F)c4)cc3)c12 for me?
*A* 2.78

*Q* Can you look up the measured inhibition of O=C1NC(=O)C(c2ccccc2Cl)=C1Nc1cccc(O)c1 for me?
*A* 1.73

*Q* Can you look up the measured inhibition of Cc1cc(O)cc(C)c1/C=C/c1cncc(-c2nn[nH]n2)c1 for me?
*A* 1.26

The reported numbers originate from ChEMBL document CHEMBL1961873.
